Target: Hexose transporter 1 (Plasmodium falciparum)
Assay: ST_JUDE_LEISH: Cytotoxicity at 2uM final concentration against transgenic Leishmania Mexicana promastigotes LmPfHT that are glucose transport deficient and complemented with the Plasmodium falciparum hexose transporter. Activity is measured by DNA content using SYBR green in vitro
Type: functional
observation_type: inhibition (%)

>>> measurement("Cc1cccc2nc(-c3cccc(-c4ccc(NC(=O)Cc5ccc[n+]([O-])c5)cc4)c3)[nH]c12")
1.16
>>> measurement("CC(C)=CCN1CCC(C(=O)Nc2ccc(-c3nc4ccccc4[nH]3)cc2)CC1")
5.1
>>> measurement("Cc1cccc(CC(=N)NCCCCCCNC(=N)Cc2cccc(C)c2)c1")
0.31
>>> measurement("O=C(COc1ccccc1)Nn1cnc2ccccc21")
0.83
>>> measurement("NCc1cccc(-c2ccccc2CNC2CCN(Cc3ccccc3)CC2)c1")
5.52
